system: Plasmodium falciparum; assay: Screen against P. falciparum Asexual Blood Stage (ABS), at 5uM; format: functional, Dd2; settings: tested at 5 uM
Out of some 65,000 compounds screened, about 2,100 (3.2%) showed an effect of 50% or more. The median lay at about -52%. The sample holds strong results, similar compounds and a random draw of the others, so the mix is not that of the screen.
We use 30% as the dividing line for INHIBITION: on or above the line is TRUE, below is FALSE.

## Task Could you verify whether the entry Cc1cccc(C)c1Nc1noc2c1CN(C(=O)c1ccnn1C)CC2 shows INHIBITION of no less than 30%?
## Result TRUE

## Task Could you verify whether the entry Cc1cccc(C)c1Nc1noc2c1CN(C(=O)c1c[nH]nc1C)CC2 shows INHIBITION of no less than 30%?
## Result TRUE

## Task Could you verify whether the entry Cc1nc(CC(=O)N2CCN(C(C)c3ccccc3F)CC2)cs1 (stereo unspecified) shows INHIBITION of no less than 30%?
## Result FALSE

## Task Could you verify whether the entry Cc1cccc(C)c1Nc1noc2c1CN(C(=O)c1cn(C)cn1)CC2 shows INHIBITION of no less than 30%?
## Result TRUE

## Task Could you verify whether the entry c1cc(CN2CCO[C@@H]3CNC[C@@H]32)co1 shows INHIBITION of no less than 30%?
## Result FALSE

Values from ChEMBL document CHEMBL4513216
